Source of measurements: ChEMBL document CHEMBL4373684

- Assay notes: in vitro
- Condition summary: PAMPA
- Description: Fraction absorbed of the compound by PAMPA
Entries and their Fa values follow.

>  <Compound>
CC(C)NCC(O)COc1ccc(CC(N)=O)cc1 (stereo not drawn)

>  <Fa, %>
100

$$$$
>  <Compound>
CCn1cc(C(=O)O)c(=O)c2cc(F)c(N3CCNCC3)cc21

>  <Fa, %>
23.5

$$$$
>  <Compound>
CC1(C)O[C@H]2[C@@H](O1)[C@@H](CNCCCCCCn1c(-c3ccccc3)nc(-c3ccccc3)c1-c1ccccc1)O[C@@H]1OC(C)(C)O[C@@H]12

>  <Fa, %>
5.9

$$$$

----------
- Assay notes: in vitro
- Condition summary: PAMPA
Observation type: Fa (%)

>  <Compound>
CO/N=C(\C(=O)N[C@@H]1C(=O)N2C(C(=O)O)=C(CSc3nc(=O)c(=O)[nH]n3C)CS[C@H]12)c1csc(N)n1 [CEFTRIAXONE]

>  <Observation type>
Fa

>  <Assay result>
99.2

$$$$
>  <Compound>
CNC(=C[N+](=O)[O-])NCCSCc1ccc(CN(C)C)o1 [RANITIDINE]

>  <Observation type>
Fa

>  <Assay result>
87.3

$$$$
>  <Compound>
CO[C@@H]1O[C@H](CNCCCCCCCn2c(-c3ccccc3)nc(-c3ccccc3)c2-c2ccccc2)[C@H]2OC(C)(C)O[C@@H]12

>  <Observation type>
Fa

>  <Assay result>
20.4

$$$$
>  <Compound>
O=c1ccc2ccccc2o1 [COUMARIN]

>  <Observation type>
Fa

>  <Assay result>
87.9

$$$$

----------
pIC50: −log10 of the molar value.
Cholinesterase (Mus musculus, UniProt Q03311) data, read-out pIC50
Sequence (Q03311 whole entry): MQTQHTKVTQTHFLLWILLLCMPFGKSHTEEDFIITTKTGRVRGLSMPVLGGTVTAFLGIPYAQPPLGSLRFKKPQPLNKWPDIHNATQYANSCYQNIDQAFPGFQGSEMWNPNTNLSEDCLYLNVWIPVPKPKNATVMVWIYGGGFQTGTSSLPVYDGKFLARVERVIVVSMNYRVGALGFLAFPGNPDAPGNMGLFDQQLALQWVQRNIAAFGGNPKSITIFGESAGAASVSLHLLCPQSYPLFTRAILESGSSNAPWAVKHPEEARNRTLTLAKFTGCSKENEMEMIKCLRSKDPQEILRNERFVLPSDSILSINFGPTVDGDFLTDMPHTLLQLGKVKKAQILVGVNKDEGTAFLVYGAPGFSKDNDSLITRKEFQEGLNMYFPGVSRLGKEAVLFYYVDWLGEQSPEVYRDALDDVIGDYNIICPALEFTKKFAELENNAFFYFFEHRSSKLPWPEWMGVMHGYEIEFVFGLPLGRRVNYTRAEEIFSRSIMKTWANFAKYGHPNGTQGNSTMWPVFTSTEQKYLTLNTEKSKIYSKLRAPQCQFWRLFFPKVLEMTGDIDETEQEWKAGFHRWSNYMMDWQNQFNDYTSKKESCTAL
Observation type: pIC50

>  <Structure as smiles>
CC1(C)O[C@H]2[C@@H](O1)[C@@H](CNCCCCCCCn1c(-c3ccccc3)nc(-c3ccccc3)c1-c1ccccc1)O[C@@H]1OC(C)(C)O[C@@H]12

>  <Observation type>
pIC50

>  <Bound sign>
=

>  <Assay result>
6.21

$$$$
>  <Structure as smiles>
CC1(C)O[C@H]2O[C@H](CNCCCCCCCCn3c(-c4ccccc4)nc(-c4ccccc4)c3-c3ccccc3)[C@H](O)[C@H]2O1

>  <Observation type>
pIC50

>  <Bound sign>
=

>  <Assay result>
5.89

$$$$
>  <Structure as smiles>
c1ccc(-c2nc(-c3ccccc3)c(-c3ccccc3)[nH]2)cc1

>  <Observation type>
pIC50

>  <Bound sign>
<

>  <Assay result>
5.00

$$$$
>  <Structure as smiles>
CC1(C)O[C@H]2O[C@H](CNCCCCCCn3c(-c4ccccc4)nc(-c4ccccc4)c3-c3ccccc3)[C@H](O)[C@H]2O1

>  <Observation type>
pIC50

>  <Bound sign>
=

>  <Assay result>
6.15

$$$$
>  <Structure as smiles>
CC1(C)O[C@H]2[C@@H](O1)[C@@H](CNCCCCCCn1c(-c3ccccc3)nc(-c3ccccc3)c1-c1ccccc1)O[C@@H]1OC(C)(C)O[C@@H]12

>  <Observation type>
pIC50

>  <Bound sign>
=

>  <Assay result>
6.77

$$$$
>  <Structure as smiles>
CC1(C)O[C@H]2O[C@H](CNCCCCCn3c(-c4ccccc4)nc(-c4ccccc4)c3-c3ccccc3)[C@H](O)[C@H]2O1

>  <Observation type>
pIC50

>  <Bound sign>
=

>  <Assay result>
6.55

$$$$
>  <Structure as smiles>
CC1(C)O[C@H]2O[C@H](CNCCCCn3c(-c4ccccc4)nc(-c4ccccc4)c3-c3ccccc3)[C@H](O)[C@H]2O1

>  <Observation type>
pIC50

>  <Bound sign>
=

>  <Assay result>
6.52

$$$$
>  <Structure as smiles>
CO[C@@H]1O[C@H](CNCCCCCCn2c(-c3ccccc3)nc(-c3ccccc3)c2-c2ccccc2)[C@H]2OC(C)(C)O[C@@H]12

>  <Observation type>
pIC50

>  <Bound sign>
=

>  <Assay result>
6.40

$$$$
>  <Structure as smiles>
CC1(C)O[C@H]2O[C@H](CNCCCCCCCn3c(-c4ccccc4)nc(-c4ccccc4)c3-c3ccccc3)[C@H](O)[C@H]2O1

>  <Observation type>
pIC50

>  <Bound sign>
=

>  <Assay result>
6.40

$$$$
>  <Structure as smiles>
CO[C@@H]1O[C@H](CNCCCCCCCn2c(-c3ccccc3)nc(-c3ccccc3)c2-c2ccccc2)[C@H]2OC(C)(C)O[C@@H]12

>  <Observation type>
pIC50

>  <Bound sign>
=

>  <Assay result>
6.30

$$$$
